The following compounds are listed with their measured pIC50 values.
Biological target: JAK2 (Homo sapiens, UniProt O60674)
Construct: endogenous in cells
Sequence (O60674 whole entry): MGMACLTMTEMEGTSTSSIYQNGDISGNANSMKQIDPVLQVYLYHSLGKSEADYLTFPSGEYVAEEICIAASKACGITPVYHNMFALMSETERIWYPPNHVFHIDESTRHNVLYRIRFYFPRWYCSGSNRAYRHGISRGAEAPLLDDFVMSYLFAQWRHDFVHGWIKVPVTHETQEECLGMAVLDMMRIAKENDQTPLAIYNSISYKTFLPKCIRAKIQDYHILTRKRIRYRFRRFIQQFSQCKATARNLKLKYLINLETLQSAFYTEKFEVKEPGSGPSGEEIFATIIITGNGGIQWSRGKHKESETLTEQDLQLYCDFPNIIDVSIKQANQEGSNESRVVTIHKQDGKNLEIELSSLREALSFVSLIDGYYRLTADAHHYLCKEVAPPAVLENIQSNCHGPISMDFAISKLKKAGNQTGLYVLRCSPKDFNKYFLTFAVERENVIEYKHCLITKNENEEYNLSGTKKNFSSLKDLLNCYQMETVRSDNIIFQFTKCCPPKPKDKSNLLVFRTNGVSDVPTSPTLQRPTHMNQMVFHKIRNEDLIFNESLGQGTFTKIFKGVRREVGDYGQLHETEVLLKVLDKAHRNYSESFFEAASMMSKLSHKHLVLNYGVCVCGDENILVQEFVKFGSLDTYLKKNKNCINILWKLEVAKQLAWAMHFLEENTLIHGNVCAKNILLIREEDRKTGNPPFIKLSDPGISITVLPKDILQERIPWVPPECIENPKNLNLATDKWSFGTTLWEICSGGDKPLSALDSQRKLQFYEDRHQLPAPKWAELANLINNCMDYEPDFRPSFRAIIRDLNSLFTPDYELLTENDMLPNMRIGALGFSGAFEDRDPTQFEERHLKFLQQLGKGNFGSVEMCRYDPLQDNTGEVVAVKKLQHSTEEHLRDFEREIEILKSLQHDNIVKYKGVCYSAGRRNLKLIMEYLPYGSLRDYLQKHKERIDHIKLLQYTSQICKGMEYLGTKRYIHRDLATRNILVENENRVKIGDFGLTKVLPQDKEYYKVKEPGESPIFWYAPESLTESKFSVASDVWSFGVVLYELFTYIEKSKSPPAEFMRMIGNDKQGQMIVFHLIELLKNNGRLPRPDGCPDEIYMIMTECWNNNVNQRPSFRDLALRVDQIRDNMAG
Assay: Kinobeads assay, JAK2 (competition binding in mixed Molt4/Ramos cell lysate, dot blot detection)
Details: read-out: JAK2 Band (Kinobeads assay potency, IC50)
pIC50: −log10 of the molar value.

In the examples that follow, each entry is paired with its recorded pIC50.
O=C(Cn1cc(Nc2ncc(Cl)c(NCc3ccccc3)n2)cn1)N1CC2COCC2C1 (stereo not shown): 5.00 to 6.00
O=C(Cn1cc(Nc2ncc(Cl)c(NCc3cccc(F)c3F)n2)cn1)N1CCOCC1: 6.00 to 7.00

QUERY: Consider the compound O=C(Cn1cc(Nc2nccc(NCc3c(F)cc(F)cc3F)n2)cn1)NC1CC1(F)F (stereo not shown) and give its measured pIC50.
RESULT: < 5.00

QUERY: Consider the compound `Cn1cc(Nc2ncc(Cl)c(NCc3cccc(F)c3F)n2)cn1` and give its measured pIC50.
RESULT: 6.00 to 7.00

QUERY: Consider the compound `CS(=O)(=O)c1ccccc1CNc1nc(Nc2cnn(CC(F)F)c2)ncc1Cl` and give its measured pIC50.
RESULT: 5.00 to 6.00

QUERY: Consider the compound `Cn1cc(Nc2ncc(Cl)c(NCc3c(F)cccc3C(F)(F)F)n2)cn1` and give its measured pIC50.
RESULT: 5.00 to 6.00

QUERY: Consider the compound `CCOC(=O)Cn1cc(Nc2ncc(Cl)c(NCc3ccccc3)n2)cn1` and give its measured pIC50.
RESULT: 5.00 to 6.00

QUERY: Consider the compound `COc1ccc(F)c(CNc2nc(Nc3cnn(CC(=O)N4CCOCC4)c3)ncc2F)c1F` and give its measured pIC50.
RESULT: 5.00 to 6.00

---

The following compounds are listed with their measured pIC50 values.
Target: JAK2 (Homo sapiens)
Construct: endogenous in cells
Experiment: Kinobeads assay, JAK2 (competition binding in mixed Molt4/Ramos cell lysate, dot blot detection)
Conditions: read-out: JAK2 Band (Kinobeads assay potency, IC50)
pIC50: −log10 of the molar value.

In the examples that follow, each entry is paired with its recorded pIC50.
COc1cc(F)c(CNc2nc(Nc3cnn(CC(N)=O)c3)ncc2C)c(F)c1 [Example I-315]: 5.00 to 6.00
O=C(Cn1cc(Nc2ncc(Cl)c(NCc3cncc(F)c3)n2)cn1)N1CCOCC1 [Example I-339]: 6.00 to 7.00
O=C(O)Cn1cc(Nc2ncc(F)c(NCc3c(F)cc(F)cc3F)n2)cn1 [Example I-307]: < 5.00
OCCn1cc(Nc2ncc(F)c(NCc3c(F)cccc3F)n2)cn1 [Example I-204]: 5.00 to 6.00
Fc1cccc(F)c1CNc1nc(Nc2cnn(CC(F)F)c2)ncc1Cl [Example I-469]: 6.00 to 7.00

QUERY: Consider the compound CN(C)C(=O)Cn1cc(Nc2ncc(Cl)c(NCc3c(F)cc(F)cc3F)n2)cn1 [Example I-16] and give its measured pIC50.
RESULT: 5.00 to 6.00

QUERY: Consider the compound COc1ccc(Cl)c(CNc2ccnc(Nc3cnn(C)c3)n2)c1F [Example I-61] and give its measured pIC50.
RESULT: 6.00 to 7.00

QUERY: Consider the compound Cc1cnc(Nc2cnn(CC(=O)NC3CC3)c2)nc1NCc1cc(F)ccc1F [Example I-346] and give its measured pIC50.
RESULT: 6.00 to 7.00

QUERY: Consider the compound COc1ccc(Cl)c(CNc2nc(Nc3cnn(CC(=O)N4CCOCC4)c3)ncc2F)c1F [Example I-81] and give its measured pIC50.
RESULT: 6.00 to 7.00

QUERY: Consider the compound Cn1cc(Nc2ncc(Cl)c(NCc3cc(C(F)(F)F)ccc3Cl)n2)cn1 [Example I-278] and give its measured pIC50.
RESULT: 5.00 to 6.00

QUERY: Consider the compound N#Cc1c(F)cccc1CNc1nc(Nc2cnn(CCO)c2)ncc1Cl [Example I-287] and give its measured pIC50.
RESULT: 6.00 to 7.00

QUERY: Consider the compound CN(Cc1cccc(CNc2nc(Nc3cnn(CCO)c3)ncc2Cl)c1)S(C)(=O)=O [Example I-398] and give its measured pIC50.
RESULT: 5.00 to 6.00

QUERY: Consider the compound Cn1cc(Nc2ncc(F)c(NCc3c(F)cc(F)cc3F)n2)cn1 [Example I-374] and give its measured pIC50.
RESULT: 5.00 to 6.00

QUERY: Consider the compound CCOc1ccc(F)c(CNc2nc(Nc3cn[nH]c3)ncc2Cl)c1F [Example I-368] and give its measured pIC50.
RESULT: 5.00 to 6.00

QUERY: Consider the compound CS(=O)(=O)Cn1cc(Nc2ncc(Cl)c(NCc3ccccc3)n2)cn1 [Example I-254] and give its measured pIC50.
RESULT: 5.00 to 6.00

QUERY: Consider the compound CN(C)C(=O)Cn1cc(Nc2ncc(F)c(NCc3c(F)cccc3F)n2)cn1 [Example I-382] and give its measured pIC50.
RESULT: 5.00 to 6.00

QUERY: Consider the compound C[C@@H](CO)NC(=O)Cn1cc(Nc2nccc(NCc3c(F)cccc3F)n2)cn1 [Example I-151] and give its measured pIC50.
RESULT: 5.00 to 6.00

QUERY: Consider the compound Cc1cnc(Nc2cnn(CC(F)(F)F)c2)nc1NCc1cc(F)ccc1F [Example I-353] and give its measured pIC50.
RESULT: 5.00 to 6.00

---

The following compounds are listed with their measured pIC50 values.
Target: JAK2 (Homo sapiens, UniProt O60674)
Construct: endogenous in cells
Assay: Kinobeads assay, JAK2 (competition binding in mixed Molt4/Ramos cell lysate, dot blot detection)
Conditions: read-out: JAK2 Band (Kinobeads assay potency, IC50)
pIC50: −log10 of the molar value.

In the examples that follow, each entry is paired with its recorded pIC50.
Cc1cnc(Nc2cnn(CCO)c2)nc1NCc1c(F)cc(F)cc1F [Example I-303]: 6.00 to 7.00
N#CCNC(=O)c1cccc(CNc2nc(Nc3cnn(CCO)c3)ncc2Cl)c1 [Example I-242]: 5.00 to 6.00

QUERY: Consider the compound N#CCNC(=O)Cn1cc(Nc2nccc(NCc3c(F)cc(F)cc3F)n2)cn1 [Example I-110] and give its measured pIC50.
RESULT: < 5.00

QUERY: Consider the compound Fc1cc(F)c(F)c(CNc2nc(Nc3cnn(CC(F)F)c3)ncc2Cl)c1 [Example I-468] and give its measured pIC50.
RESULT: 6.00 to 7.00

QUERY: Consider the compound C[C@H](C(N)=O)n1cc(Nc2ncc(Cl)c(NCc3ccccc3)n2)cn1 [Example I-290] and give its measured pIC50.
RESULT: 5.00 to 6.00

---

The following compounds are listed with their measured pIC50 values.
Target: TYK2 (Homo sapiens, UniProt P29597)
Construct: endogenous in cells; host or cells: Molt4 (ATCC CRL-1582) and Ramos (ATCC CRL-1596), mixed lysate 1:2
Sequence (P29597 whole entry): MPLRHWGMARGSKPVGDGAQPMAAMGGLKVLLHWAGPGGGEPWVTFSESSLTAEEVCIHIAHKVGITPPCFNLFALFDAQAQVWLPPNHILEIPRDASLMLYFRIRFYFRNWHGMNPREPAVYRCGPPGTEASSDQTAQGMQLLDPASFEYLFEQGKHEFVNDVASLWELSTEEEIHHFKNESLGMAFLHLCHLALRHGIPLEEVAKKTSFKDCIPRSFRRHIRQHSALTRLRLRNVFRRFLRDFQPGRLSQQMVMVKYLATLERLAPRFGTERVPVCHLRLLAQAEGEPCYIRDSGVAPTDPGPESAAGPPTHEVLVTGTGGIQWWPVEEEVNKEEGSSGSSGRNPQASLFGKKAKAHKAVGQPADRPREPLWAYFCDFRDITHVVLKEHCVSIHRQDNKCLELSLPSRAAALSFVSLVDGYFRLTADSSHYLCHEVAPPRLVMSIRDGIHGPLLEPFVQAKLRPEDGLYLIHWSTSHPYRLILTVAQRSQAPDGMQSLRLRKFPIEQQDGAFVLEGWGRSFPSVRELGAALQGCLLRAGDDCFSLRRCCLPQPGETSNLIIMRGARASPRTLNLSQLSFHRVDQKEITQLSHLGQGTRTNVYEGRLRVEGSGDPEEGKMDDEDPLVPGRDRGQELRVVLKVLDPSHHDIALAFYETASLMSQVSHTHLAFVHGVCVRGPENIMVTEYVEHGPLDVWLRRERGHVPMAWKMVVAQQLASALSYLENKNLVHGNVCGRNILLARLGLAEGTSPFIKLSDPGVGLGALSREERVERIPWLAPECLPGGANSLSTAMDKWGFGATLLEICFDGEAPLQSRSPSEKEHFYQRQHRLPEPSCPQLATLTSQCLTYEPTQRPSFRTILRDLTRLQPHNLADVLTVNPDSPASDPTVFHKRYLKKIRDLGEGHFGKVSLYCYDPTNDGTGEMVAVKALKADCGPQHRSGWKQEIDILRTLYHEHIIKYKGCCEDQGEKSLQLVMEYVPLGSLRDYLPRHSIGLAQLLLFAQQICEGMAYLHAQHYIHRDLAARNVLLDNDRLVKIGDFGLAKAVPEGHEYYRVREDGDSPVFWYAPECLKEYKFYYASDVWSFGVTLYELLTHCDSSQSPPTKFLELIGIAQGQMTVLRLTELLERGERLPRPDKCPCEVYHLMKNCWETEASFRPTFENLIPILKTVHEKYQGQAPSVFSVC
Experiment: Kinobeads assay, TYK2 (competition binding in mixed Molt4/Ramos cell lysate, dot blot detection)
Details: Kinobeads assay, Molt4/Ramos lysate; read-out: TYK2 Band (Kinobeads assay potency, IC50)
pIC50: −log10 of the molar value.

In the examples that follow, each entry is paired with its recorded pIC50.
CC(C)NC(=O)Cn1cc(Nc2nccc(NCc3c(Cl)ccc(F)c3F)n2)cn1 [Example I-93]: 7.00 to 8.00
FCCn1cc(Nc2ncc(Cl)c(NCc3ccccc3)n2)cn1 [Example I-461]: 5.00 to 6.00

QUERY: Consider the compound CN(C)C(=O)Cn1cc(Nc2ncc(F)c(NCc3c(F)cccc3F)n2)cn1 [Example I-382] and give its measured pIC50.
RESULT: 7.00 to 8.00

QUERY: Consider the compound C[C@H](C(N)=O)n1cc(Nc2ncc(Cl)c(NCc3ccccc3)n2)cn1 [Example I-290] and give its measured pIC50.
RESULT: 6.00 to 7.00

QUERY: Consider the compound Cc1cnc(Nc2cnn(CC(=O)N3CCOC(C)(C)C3)c2)nc1NCc1c(F)cc(F)cc1F [Example I-34] and give its measured pIC50.
RESULT: ≥ 8.00

QUERY: Consider the compound CC(C)NC(=O)Cn1cc(Nc2ncc(F)c(NCc3c(F)cccc3F)n2)cn1 [Example I-66] and give its measured pIC50.
RESULT: ≥ 8.00

QUERY: Consider the compound CS(=O)(=O)c1ccc(F)c(CNc2nc(Nc3cnn(CC(N)=O)c3)ncc2F)c1 [Example I-116] and give its measured pIC50.
RESULT: 7.00 to 8.00

QUERY: Consider the compound CC(NC(=O)Cn1cc(Nc2nccc(NCc3c(F)cc(F)cc3F)n2)cn1)C1CCCO1 (centres unmarked) [Example I-431] and give its measured pIC50.
RESULT: 7.00 to 8.00

---

Molecular target: TYK2 (Homo sapiens)
Construct: endogenous in cells; host or cells: Molt4 (ATCC CRL-1582) and Ramos (ATCC CRL-1596), mixed lysate 1:2
Experiment: Kinobeads assay, TYK2 (competition binding in mixed Molt4/Ramos cell lysate, dot blot detection)
Conditions: Kinobeads assay, Molt4/Ramos lysate; read-out: TYK2 Band (Kinobeads assay potency, IC50)
pIC50: −log10 of the molar value.
The following molecules are listed with their measured pIC50 values.

Cn1cc(Nc2ncc(Cl)c(NCc3cc(Br)ccc3F)n2)cn1 [Example I-218]: 6.00 to 7.00
CNC(=O)Cn1cc(Nc2ncc(Cl)c(NCc3c(F)cccc3F)n2)cn1 [Example I-229]: 7.00 to 8.00

QUERY: Consider the molecule Cc1cnc(Nc2cnn(CC(=O)NC3CCOC3)c2)nc1NCc1c(F)cc(F)cc1F (stereo not shown) [Example I-37] and give its measured pIC50.
RESULT: 7.00 to 8.00

QUERY: Consider the molecule O=C(Cn1cc(Nc2nccc(NCc3c(F)cc(F)cc3F)n2)cn1)N[C@H]1CCOC1 [Example I-138] and give its measured pIC50.
RESULT: 7.00 to 8.00
